METHOD_DESCRIPTION: human hepatoma cell viability loss – ATP luminescence, cytotoxicity control for P. falciparum antimalarial project, primary screen (AID 2303);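 note: 0% = DMSO wells and 100% = digitonin-killed cells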
TEST_CONDITIONS: HepG2 viability, 24-48 h, at 10 µM, active compounds read high
Quick reference for inhibition among some compounds
Express it in %; write the number only.

In: Can you share its inhibition? I mean this compound: CCOC(=O)c1c(C)noc1Nc1ccc(OC)cc1
Out: -1

###

TARGET_UNDER_TEST: L-lactate dehydrogenase (Plasmodium falciparum (isolate CDC / Honduras))
METHOD_DESCRIPTION: PfLDH activity inhibition – cell lysate, 3D7 strain, counter-screen for P. falciparum growth inhibition project (AID 2304);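 note: 0% = vehicle and 100% = reference inhibitor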
TEST_CONDITIONS: P. falciparum 3D7 crude extract, LDH APAD/NBT absorbance; at 2 µM; active compounds read high
PARAMETER: inhibition (%)
Please respond with the number in % and leave the unit unwritten.

Below are worked cases with known answers.
1) CS(=O)(=O)Nc1cccc(-c2cnc3[nH]cc(-c4ccc(C(=O)O)cc4)c3c2)c1	0
2) CN1CCN(CCCN(Cc2cccc(-c3cccc(CNC4CCCC4)c3)c2)C(=O)/C=C/c2ccccc2)CC1	-5
3) CCCc1cc(N2CCC(N(CC)CC)C2)nc(Nc2ccc(OC)cc2)n1 (stereo not given)	4
4) Cc1ccc(O)cc1Nc1ccnc2cc(-c3csc(CN(C)CCN(C)C)n3)ccc12	4
5) O=C(NC12CC3CC(CC(C3)C1)C2)C(=O)c1c[nH]c2ccccc12	3

In: Form: Entry = COc1cc2nc(C)nc(Nc3ccc(Oc4ccccc4)cc3)c2cc1OC | System = L-lactate dehydrogenase (Plasmodium falciparum (isolate CDC / Honduras)) | inhibition = ____
Out: 6

In: # query: inhibition | item Oc1ccc2[nH]c(-c3cccc(F)c3)nc2c1CNCc1ccccc1 | system: L-lactate dehydrogenase (Plasmodium falciparum (isolate CDC / Honduras))
Out: -2

In: Fill in the recorded inhibition for this compound, with L-lactate dehydrogenase (Plasmodium falciparum (isolate CDC / Honduras)) as test system: O=C(Nc1cccc(-c2cccc(-c3nc4ccccc4[nH]3)c2)c1)Nc1ccc2c(c1)OCO2
Out: -4

In: Find inhibition (L-lactate dehydrogenase (Plasmodium falciparum (isolate CDC / Honduras))) for the entry O=C(CCNc1ccnc(NCC2CCCCC2)n1)Nc1ccccc1
Out: -3

In: Lab note: need inhibition for COc1cccc(C(=O)N2CCOC(CCN3CCC(c4ccccc4)CC3)(c3ccc(Cl)c(Cl)c3)C2)c1 (stereo not given) on L-lactate dehydrogenase (Plasmodium falciparum (isolate CDC / Honduras)), anyone have it?
Out: -2

In: inhibition of COCC(=O)Nc1nc2ccccc2[nH]1 on L-lactate dehydrogenase (Plasmodium falciparum (isolate CDC / Honduras))?
Out: -5

In: Enter reported inhibition observed with L-lactate dehydrogenase (Plasmodium falciparum (isolate CDC / Honduras)) for O=C([C@H]1C[C@@H]1c1ccccc1)N(Cc1ccc(-c2ccc(CNCCc3ccccc3)cc2)cc1)C1CCNCC1
Out: -5

In: Field: inhibition (L-lactate dehydrogenase (Plasmodium falciparum (isolate CDC / Honduras))). Entry: Nc1nc(N)c2c(Oc3cccc4ccccc34)cccc2n1
Out: 6

In: Please tell me: inhibition of Cc1ccc(C)c(NC(=O)NC2CCN(c3ccnc(Nc4ccc(F)cc4)n3)C2)c1 (stereo not given) , system L-lactate dehydrogenase (Plasmodium falciparum (isolate CDC / Honduras))?
Out: -3

In: I'm curious: which inhibition was measured for CCN(CCCN1CCCCC1)c1cc(C)nc(Nc2ccc(C(F)(F)F)cc2)n1 tested on L-lactate dehydrogenase (Plasmodium falciparum (isolate CDC / Honduras))?
Out: -3

In: // map O=C(C1COc2ccccc2O1)N(CCCn1ccnc1)Cc1csc(-c2ccc(CNCc3ccccc3)cc2)n1 (stereo not given) to recorded inhibition (system: L-lactate dehydrogenase (Plasmodium falciparum (isolate CDC / Honduras)))
Out: -1

In: For the record O=C(N[C@@H](CC1CCCCC1)C(=O)NCCN1CCCCC1)c1ccc(O)c(-c2ccc(Cl)c(Cl)c2)c1 , what value of inhibition is listed for L-lactate dehydrogenase (Plasmodium falciparum (isolate CDC / Honduras))?
Out: -6

In: Find the measured inhibition: item CCCc1cc(=O)[nH]c(-n2nc(C)cc2NC(=O)C(CC)c2ccccc2)n1 (stereo not given) , target or system L-lactate dehydrogenase (Plasmodium falciparum (isolate CDC / Honduras)).
Out: -2

In: Recall the recorded inhibition for CCC(C)NC(=O)Nc1cccc(-c2cccc(-c3nc4c(C)cccc4[nH]3)c2)c1 (stereo not given) with L-lactate dehydrogenase (Plasmodium falciparum (isolate CDC / Honduras)) and state it.
Out: 5

In: Param readout = inhibition; param system = L-lactate dehydrogenase (Plasmodium falciparum (isolate CDC / Honduras)); param query = O=c1cc(-c2cccc(C(F)(F)F)c2)nc(Nc2ccc(Cl)c(Cl)c2)[nH]1 ; response: value
Out: -2

All figures here come from PubChem BioAssay.
